Molecular target: human MC4R receptor (human, UniProt P32245 1-332)
Sequence (P32245 whole entry): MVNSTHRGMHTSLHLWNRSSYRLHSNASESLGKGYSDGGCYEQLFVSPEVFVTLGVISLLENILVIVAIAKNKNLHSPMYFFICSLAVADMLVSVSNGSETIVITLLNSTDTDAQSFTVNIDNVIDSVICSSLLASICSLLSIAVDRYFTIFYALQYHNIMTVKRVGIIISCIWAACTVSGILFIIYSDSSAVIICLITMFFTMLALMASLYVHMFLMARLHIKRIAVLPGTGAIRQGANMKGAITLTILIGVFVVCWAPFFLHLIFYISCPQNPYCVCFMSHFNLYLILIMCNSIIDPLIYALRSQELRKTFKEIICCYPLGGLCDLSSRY
Assay: cell-based or functional assay
Starred links: 1 amine or outer side, 2 acyl side, 3 side chain; linkers in the order of their positions; H or OH if unused. Positions of bridges follow the written chain, without caps; N, C: chain ends. Non-standard residues stand in square brackets, D forms with d. Primed or numbered codes have the meaning given here. dTyr(4-OMe)″ = O-methyl-D-tyrosine, COc1ccc(C[C@@H](N[*:1])C(=O)[*:2])cc1; dPhe(4-Br) = N[C@H](Cc1ccc(Br)cc1)C(=O)O; dPhe(4-F) = N[C@H](Cc1ccc(F)cc1)C(=O)O; d(αMeF) = C[C@@](N)(Cc1ccccc1)C(=O)O; NMeR = CN[C@@H](CCCNC(=N)N)C(=O)O; dTic = O=C(O)[C@H]1Cc2ccccc2CN1; Cit = NC(=O)NCCC[C@H](N)C(=O)O; Nle = CCCC[C@H](N)C(=O)O
OBSERVATION_TYPE: % max activation (%)
Answer in %, number only, no unit symbol.

[
  {
    "BINDER": "Ac-RC[dA]R[dPhe(4-F)]R[dW]C-NH2 (disulfide 2-8) [CTX-1236]",
    "% max activation (%)": 97
  },
  {
    "BINDER": "Ac-RC[dA]R[dPhe(4-Br)][Cit][dW]C-NH2 (disulfide 2-8; SMILES CC(=O)N[C@@H](CCCNC(=N)N)C(=O)N[C@H]1CSSC[C@@H](C(N)=O)NC(=O)[C@@H](Cc2c[nH]c3ccccc23)NC(=O)[C@H](CCCNC(N)=O)NC(=O)[C@@H](Cc2ccc(Br)cc2)NC(=O)[C@H](CCCNC(=N)N)NC(=O)[C@@H](C)NC1=O) [CTX-1253]",
    "% max activation (%)": 58
  },
  {
    "BINDER": "Ac-R[Nle]CR[dTyr(4-OMe)″]R[dW]C-NH2 (disulfide 3-8; SMILES CCCC[C@H](NC(=O)[C@H](CCCNC(=N)N)NC(C)=O)C(=O)N[C@H]1CSSC[C@@H](C(N)=O)NC(=O)[C@@H](Cc2c[nH]c3ccccc23)NC(=O)[C@H](CCCNC(=N)N)NC(=O)[C@@H](Cc2ccc(OC)cc2)NC(=O)[C@H](CCCNC(=N)N)NC1=O) [CTX-1615]",
    "% max activation (%)": 68
  },
  {
    "BINDER": "Ac-RC[dA]R[dPhe(4-Br)]R[dF]C-NH2 (disulfide 2-8; SMILES CC(=O)N[C@@H](CCCNC(=N)N)C(=O)N[C@H]1CSSC[C@@H](C(N)=O)NC(=O)[C@@H](Cc2ccccc2)NC(=O)[C@H](CCCNC(=N)N)NC(=O)[C@@H](Cc2ccc(Br)cc2)NC(=O)[C@H](CCCNC(=N)N)NC(=O)[C@@H](C)NC1=O) [CTX-1255]",
    "% max activation (%)": 60
  },
  {
    "BINDER": "Ac-RC[dA]RF[NMeR][dW]C-NH2 (disulfide 2-8; not fully specified (residue 5)) [CTX-1251]",
    "% max activation (%)": 31
  }
]

Could you please provide reported % max activation for Ac-RC[dA]R[dTic]R[dW]C-NH2 (disulfide 2-8) [CTX-1273] ? Thanks!
32

Could you please provide reported % max activation for Ac-RC[dA]R[d(αMeF)]R[dW]C-NH2 (disulfide 2-8; SMILES CC(=O)N[C@@H](CCCNC(=N)N)C(=O)N[C@H]1CSSC[C@@H](C(N)=O)NC(=O)[C@@H](Cc2c[nH]c3ccccc23)NC(=O)[C@H](CCCNC(=N)N)NC(=O)[C@@](C)(Cc2ccccc2)NC(=O)[C@H](CCCNC(=N)N)NC(=O)[C@@H](C)NC1=O) [CTX-1240] ? Thanks!
81
